B1: TPR t1 (parent)
chain: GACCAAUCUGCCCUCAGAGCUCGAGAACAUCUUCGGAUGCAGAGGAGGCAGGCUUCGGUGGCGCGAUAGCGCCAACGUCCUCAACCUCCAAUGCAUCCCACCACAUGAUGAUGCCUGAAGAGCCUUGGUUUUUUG

- Variants of: B1
- ASSAY COMMENT: polymerase ribozyme fitness, log enrichment relative to wild type (log ratio); higher = more active; in vitro selection for triplet polymerase activity
QUANTITY KIND: polymerase ribozyme fitness (log ratio)
# output: bare number, no unit

Please review the entries below; each comes with its answer.
>>> value("C72A U78A C124A U132C U133A")
1.3
>>> value("C82U U96A U109C")
-5.99
>>> value("G10C C64U C79U A105G")
-3.38
>>> value("G61C C101A U112G")
-3.98
>>> value("A41U G47A G110U")
-5.48

Entry U14A G61A — recorded polymerase ribozyme fitness (log ratio) = -1.88

For U96C G110C the variant record lists polymerase ribozyme fitness (log ratio) as -4

# polymerase ribozyme fitness (log ratio) of A5C C76U = -0.646

Values were extracted from the RNAGym collection of RNA variant scans (doi:10.1073/pnas.2313332121).
